tested on: CDKL2; settings: concentration: 1 μM, replicates: in singlicate; n = 1;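 note: KINOMEscan kinase panel screen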
METRIC_NAME: %Inh (%)
The reply should be a number in %, with the unit left off.

Challenge: Give CDKL2 %Inh for COc1cc2ncn(-c3cc(OCc4ccncc4Br)c(C(N)=O)s3)c2cc1OC
Response given: 0

Challenge: Give CDKL2 %Inh for OCCCNc1nccc(-c2c(-c3cccc(C(F)(F)F)c3)nn3cc(C(F)(F)F)ccc23)n1
Response given: 7

Challenge: Give CDKL2 %Inh for CCS(=O)(=O)c1ccc(OC)c(Nc2ncc(-c3ccc(F)cc3)o2)c1.Cl
Response given: 29

Challenge: Give CDKL2 %Inh for O=C(Nc1n[nH]c2nc(-c3ccccc3)c(Br)cc12)C1CC1
Response given: 30

Challenge: Give CDKL2 %Inh for CCS(=O)c1ccc(-c2coc3ccc(-c4nnc(C)o4)cc23)cc1 (centres unmarked)
Response given: 0

Challenge: Give CDKL2 %Inh for COC(=O)c1c(-c2ccccc2)c2cc(Br)ccc2c(=O)n1Cc1ccc(NC(=O)CCC(=O)O)cc1
Response given: 0

---

system: FLT1; conditions: concentration: 1 μM, replicates: in singlicate; n = 1
Please use 1.0 whenever %Inh is not below 10%, and 0.0 whenever it is.

> print(dat)
                                 molecule  qualitative.label
1  Fc1cccc(CSc2nnc(-c3ccc4c(c3)CCO4)o2)c1                0.0

Challenge: Please tell me: is the molecule CCC(=O)c1c(-c2ccccc2)c2cc(Cl)ccc2c(=O)n1Cc1cc(S(C)(=O)=O)n(CCC(C)(C)O)n1 at or over 10% in terms of %Inh?
Response given: 1.0

Challenge: Please tell me: is the molecule CCC(=O)c1c(-c2ccccc2)c2cc(Cl)ccc2c(=O)n1Cc1cc(S(C)(=O)=O)n(CC(N)=O)n1 at or over 10% in terms of %Inh?
Response given: 0.0

---

Some compounds, each annotated with its measured %Inh.
system: HIPK3; details: concentration: 1 μM, replicates: in singlicate; n = 1

Solved entries:
> print(dat)
                                   compound  result
1  CCC(=O)c1c(-c2ccccc2)c2cc(Cl)ccc2c(=O)n1Cc1ccc(C(=O)O)cc1      0%
2      CN1C(=O)C(Nc2ccccc2)=C(c2ccccc2)C1=O      0%
3  CCC(=O)c1c(-c2ccccc2)c2cc(Cl)ccc2c(=O)n1Cc1cc(S(C)(=O)=O)n(CC(F)F)n1      0%

Challenge: Recorded %Inh for O=c1cc(N2CCOCC2)nc2n(Cc3ccc(F)c(Cl)c3)ccn12 , please?
Response given: 23%

Challenge: Recorded %Inh for COc1cc(Nc2nccc(N3CCC(NC(=O)C4COc5ccccc5O4)C3)n2)cc(OC)c1OC (stereo not drawn) , please?
Response given: 0%

Challenge: Recorded %Inh for O=C(Nc1n[nH]c2cc(-c3ccccc3F)ccc12)C1CC1 , please?
Response given: 3%

Challenge: Recorded %Inh for Cc1cccc(-c2nc(Nc3ccc4c(cnn4C)c3)c3ccccc3n2)n1 , please?
Response given: 0%

Challenge: Recorded %Inh for COc1ccc(-c2cc3c(C)nc(N)nc3n([C@H]3CC[C@H](OCCO)CC3)c2=O)cn1 , please?
Response given: 5%

Challenge: Recorded %Inh for Cl.c1ccc(Cn2cnc3cc(Nc4ncnc5ccccc45)ccc32)cc1 , please?
Response given: 8%

---

tested on: VPS34; construct: gene PIK3C3; conditions: concentration: 1 μM, replicates: in singlicate; n = 1
Some molecules, each annotated with its measured %Inh.
The reply should be a number in %, with the unit left off.

Solved entries:
> print(dat)
                                   molecule  metric.name  numeric.value
1  COc1cc2ncn(-c3cc(OCc4ccncc4)c(C(N)=O)s3)c2cc1OC         %Inh              5
2  CCC(=O)c1c(-c2ccccc2)c2cc(Cl)ccc2c(=O)n1Cc1cc(S(C)(=O)=O)n(CC(F)F)n1         %Inh              0
3             COc1ccc(-n2cnc3c(N)ncnc32)cc1         %Inh             27
4  Cc1cccc(-c2cc(-c3c[nH]nc3-c3ccccn3)ccn2)c1         %Inh              0

Challenge: Recorded %Inh for Nc1nc(N)c2nc(-c3ccccc3)[nH]c2n1 , please?
Response given: 0

Challenge: Recorded %Inh for COc1ccc(-c2coc3ccc(-c4nnc(SCc5cccc(C#N)c5)o4)cc23)cc1 , please?
Response given: 0

Challenge: Recorded %Inh for COC(=O)c1c(-c2ccccc2)c2cc(C)ccc2c(=O)n1Cc1ccccc1 , please?
Response given: 0

Challenge: Recorded %Inh for COc1cc(Nc2nccc(N3CCC(NC(=O)C4COc5ccccc5O4)C3)n2)cc(OC)c1OC (stereo not drawn) , please?
Response given: 16

Challenge: Recorded %Inh for O=C(Nc1ccc2c(c1)OCO2)NC1CCN(c2ccnc(NCc3ccc(F)cc3)n2)CC1 , please?
Response given: 7

---

test system: JAK1(JH1domain-catalytic); details: concentration: 1 μM, replicates: in singlicate; n = 1
METRIC_NAME: %Inh (%)
The reply should be a number in %, with the unit left off.

Solved entries:
> print(dat)
                            chemical.string             assayed.target  metric.name  reading.unit  numeric.value
1  CCS(=O)(=O)c1ccc(OC)c(Nc2ncc(-c3ccc(F)cc3)o2)c1.Cl  JAK1(JH1domain-catalytic)         %Inh             %             11
2  Cc1cc(Nc2nc(-c3cccc(C)n3)nc3ccccc23)ccn1  JAK1(JH1domain-catalytic)         %Inh             %              4

Consider the additional compound presented here.
Challenge: Recorded %Inh for COc1cc2nccc(Nc3ccc(OCc4ccc(NC(C)=O)cc4)cc3)c2cc1OC.Cl , please?
Response given: 20

---

system: EPHA5; settings: concentration: 1 μM, replicates: in singlicate; n = 1
// assign y if %Inh falls strictly below 1%, else n (ties count as n)

Illustrative cases are given below, each with its answer.
> print(dat)
                                   compound  qualitative.label
1  Cc1cccc(-c2cc(-c3c[nH]nc3-c3ccccn3)ccn2)c1                  y
2  CCC(=O)c1c(-c2ccccc2)c2cc(Cl)ccc2c(=O)n1Cc1ccc(C(=O)O)cc1                  y
3    Fc1cccc(CSc2nnc(-c3ccc4c(c3)CCO4)o2)c1                  n
4  CCS(=O)c1ccc(-c2coc3ccc(-c4nnc(C)o4)cc23)cc1 (stereo not drawn)                  n

Challenge: Criterion: %Inh strictly below 1%. Is it met by COc1cc(Nc2nccc(N3CCC(NC(=O)C4COc5ccccc5O4)C3)n2)cc(OC)c1OC (stereo not drawn) ?
Response given: y

Challenge: Criterion: %Inh strictly below 1%. Is it met by O=C(Nc1n[nH]c2nc(-c3ccccc3)c(Br)cc12)C1CC1 ?
Response given: n

Challenge: Criterion: %Inh strictly below 1%. Is it met by O=C(Nc1n[nH]c2nc(-c3ccccc3)c(Cl)cc12)C1CC1 ?
Response given: y

Challenge: Criterion: %Inh strictly below 1%. Is it met by CN1C(=O)C(Nc2ccccc2)=C(c2ccccc2)C1=O ?
Response given: n

---

test system: BMPR2; conditions: concentration: 1 μM, replicates: in singlicate; n = 1
Some compounds, each annotated with its measured %Inh.
The reply should be a number in %, with the unit left off.

Solved entries:
> print(dat)
                                   compound  metric.name  reading.unit  numeric.value
1  Cc1ccccc1COc1cc(-n2cnc3cc(Cl)ccc32)sc1C(N)=O         %Inh             %             26
2  Cc1cccc(-c2nc(Nc3ccc4c(cnn4C)c3)c3ccccc3n2)n1         %Inh             %              1
3  O=C(Nc1n[nH]c2nc(-c3ccccc3)c(Cl)cc12)C1CC1         %Inh             %              0
4  FC(F)(F)c1ccc(-c2ncn(CCCN3CCOCC3)c2-c2ccncc2)cc1         %Inh             %             39
5  CCS(=O)c1ccc(-c2coc3ccc(-c4nnc(C)o4)cc23)cc1 (stereo not shown)         %Inh             %             15

Challenge: Recorded %Inh for Fc1cccc(CSc2nnc(-c3ccc4c(c3)CCO4)o2)c1 , please?
Response given: 0

Challenge: Recorded %Inh for Nc1nc(-c2ccccc2F)c(-c2ccnc3ccccc23)s1 , please?
Response given: 2

Challenge: Recorded %Inh for Cl.NS(=O)(=O)c1cccc(Nc2cc(-c3ccc(F)cc3)n[nH]2)c1 , please?
Response given: 45

Challenge: Recorded %Inh for Cc1ccc(Oc2ccc(Nc3ncnc4cc[nH]c34)cc2C)cn1 , please?
Response given: 13

Challenge: Recorded %Inh for Nc1nc(N)c2nc(-c3ccccc3)[nH]c2n1 , please?
Response given: 7
